target: BTK C481S (Homo sapiens, UniProt Q06187, C481S); construct: made in house; host or cells: transiently transfected HEK293 cells (unpurified extract); test: KdELECT competition binding, mutant BTK C481S; settings: N = 1, technical duplicate; read-out: average in-house Kd for BTK C481S
Sequence (Q06187 whole entry C481S): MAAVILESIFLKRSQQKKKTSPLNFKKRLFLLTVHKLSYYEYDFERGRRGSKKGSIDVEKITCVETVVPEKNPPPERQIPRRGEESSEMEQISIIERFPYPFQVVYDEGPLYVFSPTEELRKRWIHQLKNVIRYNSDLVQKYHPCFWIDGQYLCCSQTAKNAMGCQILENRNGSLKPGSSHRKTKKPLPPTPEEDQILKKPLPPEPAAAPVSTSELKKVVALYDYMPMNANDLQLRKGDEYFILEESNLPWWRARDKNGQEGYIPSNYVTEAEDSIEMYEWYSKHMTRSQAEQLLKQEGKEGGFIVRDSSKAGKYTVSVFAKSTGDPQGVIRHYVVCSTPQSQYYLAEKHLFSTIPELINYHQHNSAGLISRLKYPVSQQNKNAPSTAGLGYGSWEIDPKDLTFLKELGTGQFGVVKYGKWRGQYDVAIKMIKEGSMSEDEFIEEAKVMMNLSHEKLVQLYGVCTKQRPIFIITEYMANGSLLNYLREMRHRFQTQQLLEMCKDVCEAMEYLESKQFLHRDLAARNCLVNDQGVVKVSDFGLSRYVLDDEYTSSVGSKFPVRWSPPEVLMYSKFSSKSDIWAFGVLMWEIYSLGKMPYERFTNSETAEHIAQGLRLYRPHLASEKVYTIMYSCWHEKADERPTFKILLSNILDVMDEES
observable: Kd (nM)

A = C=CC(=O)N1CCC[C@@H](c2ccc(C(N)=O)c3[nH]ccc23)C1
B = COc1ccc(F)cc1C(=O)NCc1ccc(-c2nn([C@@H](C)C(F)(F)F)c(N)c2C(N)=O)cc1
Inquiry: Which numeric Kd is bigger, that of A or that of B ? Please respond with the label that marks your chosen entry.
Reply text: A

====

Item-by-item account of ITK binding POC
target: ITK (Homo sapiens, UniProt Q08881); assay: scanMAX binding POC, ITK; settings: 1 μM
Sequence (Q08881 whole entry): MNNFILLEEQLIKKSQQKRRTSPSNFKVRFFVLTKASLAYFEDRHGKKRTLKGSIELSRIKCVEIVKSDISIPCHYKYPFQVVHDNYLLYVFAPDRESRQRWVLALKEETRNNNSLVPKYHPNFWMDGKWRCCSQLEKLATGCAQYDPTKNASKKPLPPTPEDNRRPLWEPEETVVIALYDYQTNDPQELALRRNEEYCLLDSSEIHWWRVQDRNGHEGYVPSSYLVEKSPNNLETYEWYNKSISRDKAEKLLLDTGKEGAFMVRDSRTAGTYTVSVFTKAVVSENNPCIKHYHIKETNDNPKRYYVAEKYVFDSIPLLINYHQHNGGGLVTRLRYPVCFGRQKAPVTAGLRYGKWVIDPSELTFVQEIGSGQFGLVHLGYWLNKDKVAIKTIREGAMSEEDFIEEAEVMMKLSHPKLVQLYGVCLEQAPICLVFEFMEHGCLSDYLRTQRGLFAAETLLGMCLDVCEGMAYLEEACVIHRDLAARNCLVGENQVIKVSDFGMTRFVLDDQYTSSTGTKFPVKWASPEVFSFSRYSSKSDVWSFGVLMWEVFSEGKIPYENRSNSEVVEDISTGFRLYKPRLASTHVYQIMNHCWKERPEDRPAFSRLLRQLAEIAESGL

C=CC(=O)Nc1cccc(Nc2nc(Nc3ccc(OCCOC)cc3)ncc2F)c1
51% of control
O=C(c1ccc(Oc2ccccc2)cc1Cl)c1c[nH]c2ncnc(N[C@@H]3CC[C@@H](CO)OC3)c12
86% of control
C[C@H]1CN(C2COC2)CCN1c1ccc(Nc2cc(-c3ccnc(N4CCn5c(cc6c5CC(C)(C)C6)C4=O)c3CO)cn(C)c2=O)nc1
25% of control
C=CC(=O)N1CCC[C@@H](c2ccc(C(N)=O)c3[nH]ccc23)C1
94% of control

Query compound follows.
Inquiry: Supply ITK binding POC measured with ITK (Homo sapiens, UniProt Q08881) for CC#CC(=O)N1CCC[C@H]1c1nc(-c2ccc(C(=O)Nc3ccccn3)cc2)c2c(N)nccn12 .
Reply text: 100% of control

====

Each item that follows carries a reported ERBB2 binding POC.
target: ERBB2 (Homo sapiens, UniProt P04626); experiment: scanMAX binding POC, ERBB2; conditions: 1 μM
Sequence (P04626 23-1255): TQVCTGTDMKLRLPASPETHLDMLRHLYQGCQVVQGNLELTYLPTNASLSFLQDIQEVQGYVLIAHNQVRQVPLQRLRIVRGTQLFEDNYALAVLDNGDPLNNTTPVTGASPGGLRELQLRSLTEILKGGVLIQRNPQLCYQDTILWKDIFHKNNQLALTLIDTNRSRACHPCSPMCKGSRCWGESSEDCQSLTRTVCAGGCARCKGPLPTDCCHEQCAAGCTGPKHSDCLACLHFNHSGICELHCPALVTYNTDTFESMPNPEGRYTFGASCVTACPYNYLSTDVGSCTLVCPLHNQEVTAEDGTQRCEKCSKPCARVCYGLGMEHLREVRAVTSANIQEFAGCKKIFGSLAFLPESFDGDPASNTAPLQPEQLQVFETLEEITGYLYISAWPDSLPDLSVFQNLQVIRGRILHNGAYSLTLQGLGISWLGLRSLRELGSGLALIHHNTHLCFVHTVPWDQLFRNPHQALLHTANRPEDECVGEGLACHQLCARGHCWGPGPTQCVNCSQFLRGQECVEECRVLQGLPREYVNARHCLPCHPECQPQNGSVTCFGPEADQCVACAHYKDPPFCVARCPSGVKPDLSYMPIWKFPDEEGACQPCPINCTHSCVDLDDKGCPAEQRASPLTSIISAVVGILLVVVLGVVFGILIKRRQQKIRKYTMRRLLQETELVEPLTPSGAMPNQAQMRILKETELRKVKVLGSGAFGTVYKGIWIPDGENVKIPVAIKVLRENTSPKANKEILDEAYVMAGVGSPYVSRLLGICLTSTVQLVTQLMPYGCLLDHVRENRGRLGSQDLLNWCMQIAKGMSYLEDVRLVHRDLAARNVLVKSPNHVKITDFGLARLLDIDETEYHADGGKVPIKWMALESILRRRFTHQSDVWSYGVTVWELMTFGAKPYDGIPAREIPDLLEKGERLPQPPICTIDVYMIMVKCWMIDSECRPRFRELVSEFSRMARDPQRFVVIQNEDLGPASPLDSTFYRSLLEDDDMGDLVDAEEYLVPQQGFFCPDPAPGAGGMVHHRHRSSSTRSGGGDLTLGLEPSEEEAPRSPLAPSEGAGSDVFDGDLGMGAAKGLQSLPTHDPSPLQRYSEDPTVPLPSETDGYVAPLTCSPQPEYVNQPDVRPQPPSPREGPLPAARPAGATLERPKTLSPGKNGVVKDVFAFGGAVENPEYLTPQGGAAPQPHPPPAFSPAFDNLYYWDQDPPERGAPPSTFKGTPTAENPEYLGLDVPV

Solved cases (5 shown):
C[C@H]1CN(C2COC2)CCN1c1ccc(Nc2cc(-c3ccnc(N4CCn5c(cc6c5CC(C)(C)C6)C4=O)c3CO)cn(C)c2=O)nc1 [Fenebrutinib]
97% of control
O=C(c1ccc(Oc2ccccc2)cc1Cl)c1c[nH]c2ncnc(N[C@@H]3CC[C@@H](CO)OC3)c12 [Nemtabrutinib]
0% of control
COc1ccc(F)cc1C(=O)NCc1ccc(-c2nn([C@@H](C)C(F)(F)F)c(N)c2C(N)=O)cc1 [Pirtobrutinib]
5.9% of control
CC#CC(=O)N1CCC[C@H]1c1nc(-c2ccc(C(=O)Nc3ccccn3)cc2)c2c(N)nccn12 [Acalabrutinib]
4.7% of control
C=CC(=O)Nc1cccc(Oc2nc(Nc3ccc(N4CCN(C)CC4)cc3)nc3ccoc23)c1 [Poseltinib]
8.7% of control

Inquiry: Report ERBB2 binding POC for C=CC(=O)N(C)CCOc1c(N)ncnc1-c1cc(F)cc(NC(=O)c2ccc(C3CC3)cc2F)c1C [Remibrutinib]
Reply text: 100% of control

Inquiry: Tell me measured ERBB2 binding POC for C=CC(=O)Nc1cccc(Nc2nc(Nc3ccc(OCCOC)cc3)ncc2F)c1 [Spebrutinib] please.
Reply text: 57% of control

Inquiry: Please report the measured ERBB2 binding POC for C=CC(=O)N1CCC[C@@H](c2ccc(C(N)=O)c3[nH]ccc23)C1 [Elsubrutinib]
Reply text: 73% of control

Inquiry: Please report the measured ERBB2 binding POC for CC#CC(=O)N[C@H]1CCCN(c2c(F)cc(C(N)=O)c3[nH]c(C)c(C)c23)C1 [Branebrutinib]
Reply text: 100% of control

Inquiry: Specify measured ERBB2 binding POC for C=CC(=O)N1CCC(CNc2ncnc(N)c2-c2ccc(Oc3ccccc3)cc2)CC1 [Evobrutinib] .
Reply text: 91% of control

Inquiry: Supply recorded ERBB2 binding POC for C=CC(=O)N1CCC(c2ccc(C(N)=O)c(-c3ccc(Oc4ccccc4)cc3)n2)CC1 [Orelabrutinib] here.
Reply text: 100% of control

Inquiry: Identify measured ERBB2 binding POC corresponding to C=CC(=O)N1CCC[C@@H](n2c(=O)n(-c3ccc(Oc4ccccc4)cc3)c3c(N)nccc32)C1 [Tolebrutinib]
Reply text: 0% of control

Inquiry: Note down ERBB2 binding POC recorded for CC#CC(=O)N1CC[C@@H](n2c(=O)n(-c3ccc(Oc4ccccc4)cc3)c3c(N)ncnc32)C1 [Tirabrutinib]
Reply text: 26% of control

Inquiry: Given C=CC(=O)N1CCC[C@@H](n2nc(-c3ccc(Oc4ccccc4)cc3)c3c(N)ncnc32)C1 [Ibrutinib] , respond with its ERBB2 binding POC.
Reply text: 0.1% of control

Inquiry: // fetch ERBB2 binding POC given entry C=CC(=O)N1CCC([C@@H]2CCNc3c(C(N)=O)c(-c4ccc(Oc5ccccc5)cc4)nn32)CC1 [Zanubrutinib]
Reply text: 7.3% of control
